measurement-target: Human TRPA1 (Homo sapiens)
Construct: expressed in transfected cells; host or cells: CHO cells
test: 45Calcium uptake assay: inhibition of AITC induced cellular uptake of radioactive calcium
Format: cell-based
conditions-used: 10.0 μM test compound; AITC (30 μM) induced 45Ca uptake; Human TRPA1 expressing CHO cells; read-out: Percentage inhibition at 10.0 μM
measurement-label: inhibition at 10 µM (%)

{"columns": ["substance-smiles", "inhibition at 10 µM / %"],
 "data": [
  ["Cc1cn(CC(=O)Nc2nc(-c3cc(F)c(OCC(C)(C)C)c(F)c3)cs2)c2c(=O)n(C)c(=O)n(C)c12", 97],
  ["Cc1nn(CC(=O)Nc2nc(-c3cc(Cl)c(OCC(C)(C)C)c(Cl)c3)cs2)c2c(=O)n(C)c(=O)n(C)c12", 95],
  ["Cc1cc2c(c(=O)n(C)c(=O)n2C)n1CC(=O)Nc1nc(-c2ccc(OCC(C)(C)C)c(F)c2)cs1", 95.3],
  ["Cn1c(=O)c2c(ccn2CC(=O)Nc2nc(-c3cc(F)c(OCC(C)(C)C)c(F)c3)cs2)n(C)c1=O", 100],
  ["Cn1c(=O)c2c(ccn2CC(=O)Nc2nc(-c3cc(F)c(OCC4CC4)c(F)c3)cs2)n(C)c1=O", 49.9],
  ["Cn1nc2c(c1CC(=O)Nc1nc(-c3ccc(Cl)cc3)cs1)c(=O)n(C)c(=O)n2C", 96.6]
]}

A: Cn1c(=O)c2c(ccn2CC(=O)Nc2nc(-c3cc(F)c(OCc4ccccc4C(F)(F)F)c(F)c3)cs2)n(C)c1=O
B: Cn1nc2c(c1CC(=O)Nc1nc(-c3ccc(F)c(C(F)(F)F)c3F)cs1)c(=O)n(C)c(=O)n2C
C: Cn1c(=O)c2c(CC(=O)Nc3nc(-c4ccc(F)c(C(F)(F)F)c4F)cs3)cn(C)c2n(C)c1=O
D: Cn1c(=O)c2c(ccn2CC(=O)Nc2nc(-c3cc(F)c(OCc4ccc(C(F)(F)F)cc4)c(F)c3)cs2)n(C)c1=O
E: Cn1nc2c(c1CC(=O)Nc1cc(-c3ccc(Br)cc3)on1)c(=O)n(C)c(=O)n2C
Prompt: Task field, ranking: reported inhibition at 10 µM, descending order. Could you list the labels in the order requested?
Response: B, A, C, E, D
(B: 99.7%, A: 67.7%, C: 41.6%, E: 24.6%, D: 16.2%)

---

measurement-target: Human TRPA1 (Homo sapiens, UniProt O75762)
Construct: expressed in transfected cells; host or cells: CHO cells
Sequence (O75762 whole entry): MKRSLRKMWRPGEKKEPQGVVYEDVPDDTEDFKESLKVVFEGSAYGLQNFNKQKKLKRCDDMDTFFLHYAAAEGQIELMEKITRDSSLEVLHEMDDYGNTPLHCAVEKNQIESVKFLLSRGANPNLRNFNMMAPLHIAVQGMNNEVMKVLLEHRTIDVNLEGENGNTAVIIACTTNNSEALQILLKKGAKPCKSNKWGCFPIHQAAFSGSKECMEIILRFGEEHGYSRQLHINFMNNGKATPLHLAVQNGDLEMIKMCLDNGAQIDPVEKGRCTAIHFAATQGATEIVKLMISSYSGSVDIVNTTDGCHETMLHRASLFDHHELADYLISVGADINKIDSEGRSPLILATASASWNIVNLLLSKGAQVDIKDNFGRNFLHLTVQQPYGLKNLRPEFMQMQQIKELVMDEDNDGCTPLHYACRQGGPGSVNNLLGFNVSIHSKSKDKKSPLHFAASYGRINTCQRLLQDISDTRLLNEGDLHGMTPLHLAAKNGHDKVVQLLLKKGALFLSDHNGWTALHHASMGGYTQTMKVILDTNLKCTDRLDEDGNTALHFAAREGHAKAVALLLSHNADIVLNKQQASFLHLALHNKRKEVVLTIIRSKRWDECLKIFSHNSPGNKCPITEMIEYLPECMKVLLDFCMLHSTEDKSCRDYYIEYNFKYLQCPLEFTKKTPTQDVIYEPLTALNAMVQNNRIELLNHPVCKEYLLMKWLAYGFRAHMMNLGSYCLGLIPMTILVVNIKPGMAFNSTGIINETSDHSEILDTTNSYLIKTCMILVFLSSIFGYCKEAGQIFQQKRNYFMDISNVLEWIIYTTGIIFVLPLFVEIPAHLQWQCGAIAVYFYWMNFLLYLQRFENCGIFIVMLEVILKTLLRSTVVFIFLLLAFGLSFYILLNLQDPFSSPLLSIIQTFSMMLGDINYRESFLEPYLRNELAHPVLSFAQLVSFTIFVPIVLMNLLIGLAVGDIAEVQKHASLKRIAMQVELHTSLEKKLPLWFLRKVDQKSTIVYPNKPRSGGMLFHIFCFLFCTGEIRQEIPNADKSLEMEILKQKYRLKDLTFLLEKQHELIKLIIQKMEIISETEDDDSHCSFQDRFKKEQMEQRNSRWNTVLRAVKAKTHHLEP
test: 45Calcium uptake assay: inhibition of AITC induced cellular uptake of radioactive calcium
Assay type: cell-based
conditions-used: 1.0 μM test compound; AITC (30 μM) induced 45Ca uptake; Human TRPA1 expressing CHO cells; read-out: Percentage inhibition at 1.0 μM
measurement-label: inhibition at 1 µM (%)

Below, 2 compounds whose answers are already recorded.
{"columns": ["compound", "inhibition at 1 µM (%)"],
 "data": [
  ["CC(C)CCOc1c(F)cc(-c2csc(NC(=O)Cn3ncc4c3c(=O)n(C)c(=O)n4C)n2)cc1F [Example 76]", 84.3],
  ["Cc1cc2c(c(=O)n(C)c(=O)n2C)n1CC(=O)Nc1nc(-c2cc(F)c(OCC(F)(F)F)c(F)c2)cs1 [Example 26]", 95.3]
]}

1: Cn1c(=O)c2c(ccn2CC(=O)Nc2nc(-c3ccc(F)c(C(F)(F)F)c3F)cs2)n(C)c1=O [Example 9]
2: Cn1c(=O)c2c(ccn2CC(=O)Nc2nc(-c3cc(F)c(OCC(C)(C)C)c(F)c3)cs2)n(C)c1=O [Example 8]
Prompt: Consider 1 and 2 . Which of these has its inhibition at 1 µM at a higher number? State your choice using its label.
Response: 2

---

measurement-target: Human TRPA1 (Homo sapiens)
Construct: expressed in transfected cells; host or cells: CHO cells
test: 45Calcium uptake assay: inhibition of AITC induced cellular uptake of radioactive calcium
Assay type: cell-based
conditions-used: 10.0 μM test compound; AITC (30 μM) induced 45Ca uptake; Human TRPA1 expressing CHO cells; read-out: Percentage inhibition at 10.0 μM
Description: The illustrative examples of the present invention are screened for TRPA1 activity according to a modified procedure described in (a) Tóth, A. et al., Life Sciences, 2003, 73, 487-498. […] The inhibition of TRPA1 receptor activation was measured as inhibition of allyl isothiocyanate (AITC) induced cellular uptake of radioactive calcium. […] Radioactivity in the lysate was measured in Packard Top count after addition of liquid scintillant. […]
measurement-label: inhibition at 10 µM (%)

Below, 2 compounds whose answers are already recorded.
{"columns": ["compound", "unit-name", "inhibition at 10 µM"],
 "data": [
  ["Cc1cn(CC(=O)Nc2nc(-c3ccc(C(F)(F)F)c(F)c3)cs2)c2c(=O)n(C)c(=O)n(C)c12 [Example 35]", "%", 96.8],
  ["Cn1nc2c(c1CC(=O)Nc1nc(-c3ccc(C(F)(F)F)cc3F)cs1)c(=O)n(C)c(=O)n2C [Example 56]", "%", 98.2]
]}

P: Cc1cc2c(c(=O)n(C)c(=O)n2C)n1CC(=O)Nc1cc(-c2ccc(Br)cc2)on1 [Example 33]
Q: CC(C)COc1c(F)cc(-c2csc(NC(=O)Cn3ccc4c3c(=O)n(C)c(=O)n4C)n2)cc1F [Example 6]
Prompt: Consider P and Q . Which of these has its inhibition at 10 µM at a higher number? State your choice using its label.
Response: Q

---

measurement-target: Human TRPA1 (Homo sapiens)
Construct: expressed in transfected cells; host or cells: CHO cells
test: 45Calcium uptake assay: inhibition of AITC induced cellular uptake of radioactive calcium
Type: cell-based
conditions-used: 1.0 μM test compound; AITC (30 μM) induced 45Ca uptake; Human TRPA1 expressing CHO cells; read-out: Percentage inhibition at 1.0 μM
Description: The illustrative examples of the present invention are screened for TRPA1 activity according to a modified procedure described in (a) Tóth, A. et al., Life Sciences, 2003, 73, 487-498. […] The inhibition of TRPA1 receptor activation was measured as inhibition of allyl isothiocyanate (AITC) induced cellular uptake of radioactive calcium. […] Radioactivity in the lysate was measured in Packard Top count after addition of liquid scintillant. […]
measurement-label: inhibition at 1 µM (%)

Below, 4 molecules whose answers are already recorded.
{"columns": ["molecule", "unit-name", "inhibition at 1 µM"],
 "data": [
  ["Cn1nc2c(c1CC(=O)Nc1nc(-c3ccc(F)c(C(F)(F)F)c3F)cs1)c(=O)n(C)c(=O)n2C [Example 63]", "%", 95.1],
  ["Cc1nn(CC(=O)Nc2nc(-c3cc(F)c(OCC(C)(C)C)c(F)c3)cs2)c2c(=O)n(C)c(=O)n(C)c12 [Example 82]", "%", 92.8],
  ["Cc1cc2c(c(=O)n(C)c(=O)n2C)n1CC(=O)Nc1nc(-c2cc(Cl)c(OCC(C)(C)C)c(Cl)c2)cs1 [Example 29]", "%", 95.6],
  ["Cn1c(=O)c2c(c(Br)cn2CC(=O)Nc2nc(-c3cc(F)c(OCC(C)(C)C)c(F)c3)cs2)n(C)c1=O [Example 36]", "%", 35.6]
]}

A: Cn1c(=O)c2c(ccn2CC(=O)Nc2nc(-c3ccc(Cl)c(Cl)c3Cl)cs2)n(C)c1=O [Example 5]
B: Cn1c(=O)c2c(CC(=O)Nc3nc(-c4ccc(C(F)(F)F)c(F)c4)cs3)cn(C)c2n(C)c1=O [Example 41]
C: Cn1c(=O)c2c(ccn2CC(=O)Nc2nc(-c3cc(F)c(OCCC(F)(F)F)c(F)c3)cs2)n(C)c1=O [Example 12]
Prompt: Task field, ranking: reported inhibition at 1 µM, descending order. Could you list the labels in the order requested?
Response: C, A, B

---

measurement-target: Human TRPA1 (Homo sapiens)
test: 45Calcium uptake assay: inhibition of AITC induced cellular uptake of radioactive calcium
conditions-used: AITC (30 μM) induced 45Ca uptake; Human TRPA1 expressing CHO cells; read-out: Human IC50 value (range)
measurement-label: IC50

Below, 6 compounds whose answers are already recorded.
{"columns": ["substance-smiles", "measurement-target", "IC50"],
 "data": [
  ["Cn1c(=O)c2c(cnn2CC(=O)Nc2nc(-c3cc(Cl)c(OCC(C)(C)C)c(Cl)c3)cs2)n(C)c1=O", "Human TRPA1 (Homo sapiens)", "< 50 nM"],
  ["Cn1nc2c(c1CC(=O)Nc1nc(-c3ccc(C(F)(F)F)cc3F)cs1)c(=O)n(C)c(=O)n2C", "Human TRPA1 (Homo sapiens)", "< 50 nM"],
  ["Cn1c(=O)c2c(cnn2CC(=O)Nc2nc(-c3ccc(OCC(C)(C)C)c(Cl)c3)cs2)n(C)c1=O", "Human TRPA1 (Homo sapiens)", "< 50 nM"],
  ["Cn1nc2c(c1CC(=O)Nc1nc(-c3cccc(C(F)(F)F)c3)cs1)c(=O)n(C)c(=O)n2C", "Human TRPA1 (Homo sapiens)", "50 to 100 nM"],
  ["Cc1nn(CC(=O)Nc2nc(-c3cc(F)c(OCC(C)(C)C)c(F)c3)cs2)c2c(=O)n(C)c(=O)n(C)c12", "Human TRPA1 (Homo sapiens)", "50 to 100 nM"],
  ["Cn1c(=O)c2c(ccn2CC(=O)Nc2nc(-c3ccc(C(F)(F)F)c(F)c3)cs2)n(C)c1=O", "Human TRPA1 (Homo sapiens)", "< 50 nM"]
]}

For `Cc1cc2c(c(=O)n(C)c(=O)n2C)n1CC(=O)Nc1nc(-c2ccc(OCC(C)(C)C)c(Cl)c2)cs1` the compound record lists IC50 as < 50 nM

For `Cn1c(=O)c2c(cnn2CC(=O)Nc2nc(-c3ccc(F)c(C(F)(F)F)c3F)cs2)n(C)c1=O` the compound record lists IC50 as 50 to 100 nM

For `Cn1c(=O)c2c(ccn2CC(=O)Nc2nc(-c3cc(F)c(OCC(F)(F)F)c(Cl)c3)cs2)n(C)c1=O` the compound record lists IC50 as < 50 nM

For `Cn1c(=O)c2c(cnn2CC(=O)Nc2nc(-c3cc(F)c(OCC(C)(C)C)c(Cl)c3)cs2)n(C)c1=O` the compound record lists IC50 as < 50 nM

For `Cn1c(=O)c2c(cnn2CC(=O)Nc2nc(-c3cc(F)c(OCC4CCC4)c(F)c3)cs2)n(C)c1=O` the compound record lists IC50 as < 50 nM
